# procedure.details: Population pharmacokinetic modelling of DHA and piperaquine plasma concentrations in healthy Thai volunteers
# Type: in vivo, human
# recorded.conditions: both sexes, human, plasma, oral, with primaquine; Bayesian post hoc estimates; read-out: TMAX, median (range)
# Protocol: It was a descriptive pharmacokinetic-pharmacodynamic study and no formal sample size calculations were performed. […] All volunteers received primaquine alone in the first phase, followed by a washout period of 1 week. […] The exact drug administration and sampling times were recorded. […] All plasma samples were stored below -70°C and transferred on dry ice to the Department of Clinical Pharmacology, Mahidol-Oxford Tropical Medicine Research Unit (MORU), Bangkok, Thailand, for drug quantification. […]
metric.name: Tmax (h)

I = Clc1ccc2c(N3CCN(CCCN4CCN(c5ccnc6cc(Cl)ccc56)CC4)CC3)ccnc2c1
II = C[C@H]1[C@@H](O)O[C@@H]2O[C@@]3(C)CC[C@H]4[C@H](C)CC[C@@H]1[C@@]24OO3 [dihydroartemisinin]
Tmax comparison. Which is larger, I or II ? Select an item and report its label.
I
(I: 3.98 h, II: 1.27 h)
